# Tested on: HeLa Kyoto;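 further: HeLa Kyoto cells arrested at G1/S by double thymidine block, proteins quantified by TMT10plex mass spectrometry in mild NP-40 versus SDS extracts, three biological replicates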
# test-protocol: solubility in G1/S (NP-40 vs SDS abundance) (log2 ratio); higher = more soluble
# condition-summary: cell cycle stage: G1/S
readout: solubility in G1/S (log2)

# entry-sequence, result-value
records = [
    ("MLGAWAVEGTAVALLRLLLLLLPPAIRGPGLGVAGVAGAAGAGLPESVIWAVNAGGEAHVDVHGIHFRKDPLEGRVGRASDYGMKLPILRSNPEDQILYQTERYNEETFGYEVPIKEEGDYVLVLKFAEVYFAQSQQKVFDVRLNGHVVVKDLDIFDRVGHSTAHDEIIPMSIRKGKLSVQGEVSTFTGKLYIEFVKGYYDNPKVCALYIMAGTVDDVPKLQPHPGLEKKEEEEEEEEYDEGSNLKKQTNKNRVQSGPRTPNPYASDNSSLMFPILVAFGVFIPTLFCLCRL [MLEC]", -0.0175),
]

// next item, solubility in G1/S (log2) requested
Request: solubility in G1/S (log2) for MDWVMKHNGPNDASDGTVRLRGLPFGCSKEEIVQFFQGLEIVPNGITLTMDYQGRSTGEAFVQFASKEIAENALGKHKERIGHRYIEIFRSSRSEIKGFYDPPRRLLGQRPGPYDRPIGGRGGYYGAGRGSMYDRMRRGGDGYDGGYGGFDDYGGYNNYGYGNDGFDDRMRDGRGMGGHGYGGAGDASSGFHGGHFVHMRGLPFRATENDIANFFSPLNPIRVHIDIGADGRATGEADVEFVTHEDAVAAMSKDKNNMQHRYIELFLNSTPGGGSGMGGSGMGGYGRDGMDNQGGYGSVGRMGMGNNYSGGYGTPDGLGGYGRGGGGSGGYYGQGGMSGGGWRGMY [HNRNPH3] ?
Result: -0.0906
